Tested on: Plasmodium falciparum
protocolNotes: Primary screen in NF54 nanoGlo assay, in single point, at 2uM, 72h; a lower Z score goes with more inhibition
Type: functional, Erythrocyte
measurementParameters: timepoint 72 hour
Screen size: about 150,000 compounds; about 540 (0.36%) showed an effect of 50% or more. Shown is part of a subset that was picked to be rich in strong results.
readoutType: Z score

Task: Given the entry N#Cc1ccc(N[C@H]2CCN(C3CCOCC3)C2=O)cc1C(F)(F)F , report its measured Z score.
Output: -0.05

Task: Given the entry C=CCCC(CN1C[C@H]2CC=CC[C@H]2C1)Oc1ncccn1 (some centres undefined) , report its measured Z score.
Output: 1.33

Task: Given the entry O=C(c1ccncc1F)N1C[C@H]2CC[C@@H](C1)N(CC1CC1)C2 , report its measured Z score.
Output: -0.29

Task: Given the entry COc1ccc2c(c1)OC[C@@]1(C(=O)O)CN(CCC(F)(F)F)C[C@@H]21 , report its measured Z score.
Output: -0.33

Task: Given the entry O=C(Cc1c[nH]c2ccccc12)N1CCN(Cc2nnn3c2CO[C@H](c2cccc(F)c2)C3)CC1 , report its measured Z score.
Output: 0.79

Task: Given the entry CC(NC[C@H](C)O)C(C)(C)c1ccc(F)cc1 (some centres undefined) , report its measured Z score.
Output: 0.44

Task: Given the entry COc1ccc(NC(=O)CN2CC=C(c3cnn(C)c3)CC2)cc1Cl , report its measured Z score.
Output: 1.67

Task: Given the entry Fc1cnc(N2C[C@@H](c3ccccc3)[C@@H]3[C@H]2C2CCN3CC2)nc1 , report its measured Z score.
Output: 2.17

Task: Given the entry Clc1cccc2c(N3CC[C@]4(CCNC4)C3)ccnc12 , report its measured Z score.
Output: -3.12

Task: Given the entry C=CCCC(CN1C[C@H]2CC=CC[C@H]2C1)Oc1ccnc(C)n1 (some centres undefined) , report its measured Z score.
Output: -0.6

Task: Given the entry O=S(=O)(NC12CCCC1CNC2)c1onc(C2CC2)c1Cl (centres undefined) , report its measured Z score.
Output: -8.97

Task: Given the entry Cc1oncc1C(=O)N1C[C@H](c2cc(F)cc(F)c2)[C@@H]2[C@H]1C1CCN2CC1 , report its measured Z score.
Output: 0.74

Task: Given the entry CCC(=O)Nc1ccc(C)c(NC(=O)C2(c3ccccc3)CCN(C)CC2)c1 , report its measured Z score.
Output: 1.09

Task: Given the entry O=C(Cc1ccc(O)c(F)c1)N1C[C@H]2c3ccccc3OC[C@@]2(C(=O)O)C1 , report its measured Z score.
Output: 0.24

Task: Given the entry CCC(CC)c1cc([C@H]2CN3CC[C@H]2C[C@@H]3CO)nc(-c2ccncc2)n1 , report its measured Z score.
Output: -2.22

Task: Given the entry O=c1ccc(-c2cncnc2)c2n1C[C@H]1C[C@@H]2CN(S(=O)(=O)c2ccccc2)C1 , report its measured Z score.
Output: 1.78

Task: Given the entry CC(=O)N(C1CCN(Cc2ccccc2)CC1)C1(C(=O)Nc2ccc3[nH]ccc3c2)CCN(C)CC1 , report its measured Z score.
Output: -11.04

Task: Given the entry CN1CC[C@]2(CCN(c3ccnc4ccsc34)C2)C1 , report its measured Z score.
Output: -10.65

Task: Given the entry CN(Cc1ccccc1)C[C@H]1C[N@@]2CC[C@H]1C[C@@H]2CNC(=O)c1ccccc1 , report its measured Z score.
Output: -1.99

Task: Given the entry CN1CCC[C@@]2(CCN(c3ccncc3C3CC3)C2)C1 , report its measured Z score.
Output: 0.05

Task: Given the entry Cc1nc(CN2C[C@@H](CO)[C@H](c3ccc(Cl)cc3)C2)co1 , report its measured Z score.
Output: -0.83

Task: Given the entry c1ccc2c(CN3CCCCCC3)c[nH]c2c1 , report its measured Z score.
Output: -0.53

Task: Given the entry O=C(COc1ccccc1)N1CCCCC[C@@H]1CN1CCCC1 , report its measured Z score.
Output: -0.2

Task: Given the entry CCOc1ccccc1NC(=O)CN1CC=C(c2cnn(C)c2)CC1 , report its measured Z score.
Output: 0.1

Task: Given the entry c1cc2c(c(-c3cnccn3)c1)CCNC2 , report its measured Z score.
Output: 0.84

Task: Given the entry CCCS(=O)(=O)NC[C@H]1C[C@@H]2CCN1C[C@@H]2c1cc(C(CC)CC)nc(-c2ccncc2)n1 , report its measured Z score.
Output: -3.34

Task: Given the entry O=C(CNc1ccc(Cl)c(F)c1)N1CCC2(CC1)OCCO2 , report its measured Z score.
Output: -3.19

Task: Given the entry CC(Cc1ccccc1Br)NC(C)c1cccnc1 (centres undefined) , report its measured Z score.
Output: -0.27

Task: Given the entry O=C(c1cc(F)cc(F)c1)N1CCC2(CC1)N(c1ccccc1)C(=O)CS2(=O)=O , report its measured Z score.
Output: 2.33

Task: Given the entry C[C@@H](Cc1ccc(F)cc1)NCC(C)(C)C(N)=O , report its measured Z score.
Output: 0.56

Task: Given the entry c1ccc2c(c1)C[C@H](Cc1ccc3c(c1)CNCC3)CO2 , report its measured Z score.
Output: -0.36

Task: Given the entry CCOc1ccc(NC(=O)CN2CC=C(c3cnn(C)c3)CC2)cc1 , report its measured Z score.
Output: 0.93

Task: Given the entry Fc1cc(CNCC(F)F)ccc1Cl , report its measured Z score.
Output: 0.98

Task: Given the entry O=C(c1ccccc1)c1cc(Cl)ccc1NC(=O)C1CCN(C(=O)c2ccco2)CC1 , report its measured Z score.
Output: -0.14

Task: Given the entry O=C(c1ccccc1)c1cc(Cl)ccc1NC(=O)[C@H]1CC(=O)N(c2ccc(F)cc2)C1 , report its measured Z score.
Output: -9.01

Task: Given the entry Cc1cc(C(=O)NC2CC(C)n3ccnc32)nn1C(C)C (centres undefined) , report its measured Z score.
Output: -7.62

Task: Given the entry O=C(NCc1ccccc1)N1Cc2ccccc2-n2cccc2[C@H]1c1ccccc1 , report its measured Z score.
Output: 1.11

Task: Given the entry CN(C)C1(CNc2ccc(C#N)c(Cl)c2)CCOCC1 , report its measured Z score.
Output: 0.53

Task: Given the entry COCCN1C[C@@H]2CC[C@H]1CN(C(=O)c1cc(C(C)C)on1)C2 , report its measured Z score.
Output: -0.35

Task: Given the entry Cc1sc2ncnc(N3CCN4CCC[C@H]4C3)c2c1C , report its measured Z score.
Output: 0.64

Task: Given the entry CCCc1cncnc1N1C[C@H]2CC[C@@H](C1)N(CCC)C2 , report its measured Z score.
Output: -1.29

Task: Given the entry Cc1cc(C(=O)NC2CC2)nn1[C@@H](C)C1CC1 , report its measured Z score.
Output: 0.91

Task: Given the entry Cc1ccc(C)n1[C@@H](Cc1cnc[nH]1)C(=O)O , report its measured Z score.
Output: 0.15

Task: Given the entry Cc1ccc(CNc2ncnc3[nH]ncc23)c(-n2cc(Cl)cn2)n1 , report its measured Z score.
Output: -2.28
